target: BRD4 (Homo sapiens, UniProt O60885); assay: Time resolved fluorescence resonance energy transfer (TR-FRET) binding assay, bromodomain BRD4; details: one of the FRET assays described; read-out: FRET BRD4 IC50
experimentalReadout: IC50

compound	IC50
[2H]C([2H])([2H])C(O)(c1cc2c(cn1)c1ncc(-c3c(C)noc3C)cc1n2[C@H](c1ccc(F)cc1)C1CCOCC1)C([2H])([2H])[2H] [Example 224]	< 10 nM
[2H]C([2H])([2H])c1nnn(C)c1-c1cnc2c3ccc(N4C[C@@H](C)N[C@@H](C)C4)nc3n([C@H](c3ccccc3)C3CCOCC3)c2c1 [Example 252]	< 1 nM

Enquiry: Assign IC50 to the following record: [2H]C([2H])([2H])c1nnn(C)c1-c1cnc2c3c(OC)ncc(S(C)(=O)=O)c3n(C(c3ncccc3F)C3CCC(F)(F)CC3)c2c1 (stereo not drawn) [Example 73]
Return: < 1500 nM

Enquiry: Please look at this compound and report its IC50: [2H]C([2H])([2H])c1nnn(C)c1-c1cnc2c3c(OC)ncc(C(C)(C)O)c3n(C(c3ccccc3)C3CCC(F)(F)CC3)c2c1 (single isomer, unassigned) [Example 282]
Return: < 1 nM

Enquiry: Name the recorded IC50 of the compound listed here: COc1ncc(Cl)c2c1c1ncc(-c3c(C)nnn3C)cc1n2[C@H](c1ccccc1)C1CCOCC1 [Example 39]
Return: < 10 nM

Enquiry: Give me measured IC50, please, for this compound: Cc1nnn(C)c1-c1ccc2c3ncc(C(C)(C)O)cc3n([C@@H](c3ccccc3)C3CCOCC3)c2n1 [Example 378]
Return: < 10 nM

###

biological target: BRD4 (Homo sapiens, UniProt O60885); assay: Time resolved fluorescence resonance energy transfer (TR-FRET) binding assay, bromodomain BRD4; conditions: one of the FRET assays described; read-out: FRET BRD4 IC50
pIC50: −log10 of the molar value.
experimentalReadout: pIC50

compound	result
Cc1nnn(C)c1-c1cnc2c3ccc(N4CCS(=O)(=O)C(C)C4)nc3n(C(c3ccccc3)C3CCOCC3)c2c1 (stereo not shown)	> 8.00
[2H]C([2H])([2H])c1nnn(C)c1-c1cnc2c3c(OCC)nccc3n([C@H](c3ccccc3)C3CCOCC3)c2c1	> 9.00
COc1nnn(C)c1-c1cnc2c3ccc(-c4c(OC)nnn4C)nc3n([C@H](c3ccccc3)C3CCOCC3)c2c1	> 8.00

Enquiry: Fill in reported pIC50 for this entry: `COc1nc(C(C)(C)O)cc2c1c1ncc(-c3c(C)nnn3C)cc1n2[C@@H](c1ncccc1F)C1CCOCC1`
Return: > 8.00

Enquiry: Give the reported value of pIC50 for this record: `[2H]C([2H])([2H])c1nnn(C)c1-c1cnc2c3ccc(N4CC(=O)NC(=O)C4)nc3n([C@H](c3ccccc3)C3CCOCC3)c2c1`
Return: > 8.00

Enquiry: Quick one: give measured pIC50 for `[2H]C([2H])([2H])c1nnn(C)c1-c1cnc2c3c(OCC(F)(F)F)cncc3n([C@H](c3ccccc3)C3CCOCC3)c2c1`
Return: > 9.00

Enquiry: // fetch pIC50 given entry [2H]C([2H])([2H])c1nnn(C)c1-c1cnc2c3c(OCC4CC4(F)F)nccc3n([C@H](c3ccccc3)C3CCOCC3)c2c1 (stereo partly shown)
Return: > 9.00

Enquiry: Given the compound [2H]C([2H])([2H])c1nnn(C)c1-c1cnc2c3ccc(-c4c(C([2H])([2H])[2H])nnn4C)nc3n(C(c3ccccc3)C3CCC(F)(F)CC3)c2c1 (stereo not shown) [Example 260] , write its reported pIC50.
Return: > 8.00

Enquiry: Query pIC50 for Cc1nnn(C)c1-c1cnc2c3ccc(N4CC5CC4CS5(=O)=O)nc3n([C@H](c3ccccc3)C3CCOCC3)c2c1 (stereo partly shown)
Return: > 9.00

Enquiry: Please supply the value of reported pIC50 for the item `Cc1nnn(C)c1-c1cnc2c3ccc(-c4c(C)nnn4C)nc3n([C@H](c3ccccc3F)C3CCOCC3)c2c1`
Return: > 9.00

Enquiry: Provide one value: measured pIC50 of `Cc1nnn(C)c1-c1cnc2c3ccc(N4CCN(C(=O)N(C)C)CC4)nc3n([C@H](c3ccccc3F)C3CCOCC3)c2c1`
Return: > 9.00

Enquiry: Consider the compound `Cc1noc(C)c1-c1cnc2c3c(NS(C)(=O)=O)ncc(S(C)(=O)=O)c3n([C@H](c3ccccc3)C3CCOCC3)c2c1` . State its measured pIC50.
Return: > 8.00

Enquiry: Given the compound `[2H]C([2H])([2H])c1nnn(C)c1-c1cnc2c3ccc(N4CC(N5CCS(=O)(=O)CC5)C4)nc3n([C@H](c3ccccc3)C3CCOCC3)c2c1` , write its reported pIC50.
Return: > 8.00

Enquiry: Look up and report measured pIC50 for this entry: `[2H]C([2H])([2H])c1nnn(C)c1-c1cnc2c3c(OC)nc(C(C)(C)O)cc3n([C@H](c3ncccc3F)C3CCOCC3)c2c1`
Return: > 8.00

Enquiry: Specify reported pIC50 for the compound shown: `Cc1nnn(C)c1-c1cnc2c3c(NS(=O)(=O)C4CC4)ncc(S(C)(=O)=O)c3n([C@H](c3ccccc3)C3CCOCC3)c2c1`
Return: > 9.00

Enquiry: Look up and state reported pIC50 for [2H]C([2H])([2H])c1onc(C)c1-c1cnc2c3c(OC)ncc(S(=O)(=O)C([2H])([2H])[2H])c3n(C(c3ncccc3F)C3CCOCC3)c2c1 (stereo not shown) [Example 66]
Return: > 8.00

Enquiry: Write down pIC50 measured for item `Cc1nnn(C)c1-c1cnc2c3ccnc(N4CCOCC4)c3n([C@H](c3ccccc3)C3CCOCC3)c2c1`
Return: > 8.00

Enquiry: Tell me measured pIC50 for `CNCCN(C)c1ccc2c3ncc(-c4c(OC)nnn4C)cc3n([C@H](c3ccccc3F)C3CCOCC3)c2n1` please.
Return: > 8.00

Enquiry: Provide one value: measured pIC50 of COc1nccc2c3ncc(-c4c(C)nnn4C)cc3n(C(c3cccc(F)c3F)C3CCOCC3)c12 (single isomer, unassigned) [Example 23]
Return: > 5.82

Enquiry: Note down pIC50 recorded for `[2H]C([2H])([2H])c1nnn(C)c1-c1cnc2c3c(C(C)=O)cncc3n([C@H](c3ccccc3)C3CCOCC3)c2c1`
Return: > 8.00

Enquiry: Give pIC50 for `[2H]C([2H])([2H])c1nnn(C)c1-c1cnc2c3c(OC(C)C)ncc(S(C)(=O)=O)c3n([C@H](c3ccccc3F)C3CCOCC3)c2c1`
Return: > 9.00
